pIC50: −log10 of the molar value.
As a worked illustration, we turn to pIC50 data collected for PI3K β (Homo sapiens (Human)).

CC(C)N1CCN(C2CN(c3cnc4ccc(-c5ccc6oc(N)nc6c5)cc4n3)C2)CC1	> 5.00
Nc1nc2cc(-c3ccc4ncc(C(=O)N5CCOCC5)n4n3)ccc2o1	> 5.00

Report measured pIC50; entry is CC1CN(c2cnc3ccc(-c4ccc5oc(N)nc5c4)cc3n2)CC(C)N1 (centres unmarked)
> 6.00

Report measured pIC50; entry is `NCC(=O)N1CCN(c2cnc3ccc(-c4ccc5oc(N)nc5c4)nc3n2)CC1`
> 5.00

Report measured pIC50; entry is `Nc1nc2cc(-c3ccn4ncc(-c5ccncc5)c4n3)ccc2o1`
> 7.00

Report measured pIC50; entry is `Cc1cc2ncc(C(=O)N3CCOCC3)n2cc1-c1ccc2oc(N)nc2c1`
< 5.00

Report measured pIC50; entry is `COC(=O)N1CCC(n2ncc3c(N4CCOCC4)nc(-c4ccc5oc(N)nc5c4)nc32)CC1`
> 5.00

Report measured pIC50; entry is `CCN1CCN(c2cnc3ccc(-c4ccc5oc(N)nc5c4)cc3n2)CC1`
> 7.00

Report measured pIC50; entry is `Nc1nc2cc(-c3ccc4ncc(N5CC(N6CCOCC6)C5)nc4c3)c(F)cc2o1`
> 5.00

Report measured pIC50; entry is `Nc1nc2cc(-c3ccc4nccc(-c5ccncc5)c4c3)ccc2s1`
> 7.00

Report measured pIC50; entry is `Nc1nc2cc(-c3ccc4ncc(C(=O)N5CCN(C6CC6)CC5)n4c3)ccc2o1`
> 5.00

Report measured pIC50; entry is `Cc1ncccc1-c1cnc2ccc(-c3ccc4oc(N)nc4c3)cc2n1`
< 5.00

Report measured pIC50; entry is `CN1CCN(c2cnc3ccc(-c4ccc5nc(N)oc5c4)cc3n2)CC1`
> 7.00

Report measured pIC50; entry is `Nc1ncc(-c2ccc3oc(N)nc3c2)cn1`
< 5.00

Report measured pIC50; entry is Nc1nc2cc(-c3ccc4ncnc(OC5CCOCC5)c4c3)ccc2o1 [Compound 47]
> 6.00

Report measured pIC50; entry is `Nc1nc2ccc(-c3ccc4sc(N)nc4c3)cc2o1`
> 7.00

Report measured pIC50; entry is `COCCn1cnc2ccc(-c3ccc4oc(N)nc4c3)cc2c1=O`
> 5.00

----------
As a worked illustration, we turn to pIC50 data collected for PI3K α (Homo sapiens (Human)).
pIC50: −log10 of the molar value.

# annotated cases, reported pIC50 shown
Nc1nc2cc(-c3ccc4ncn(C5CCCC5)c(=O)c4c3)ccc2o1	> 5.00
Nc1nc2cc(-c3ccc4ncc(N5CCCCC5)nc4c3)ccc2o1	> 7.00
Cc1cc(-c2ccc3ncc(N4CC(N5CCOCC5)C4)nc3c2)cc2nc(N)oc12	> 5.00
C[C@H]1CN(c2cnc3ccc(-c4ccc5oc(N)nc5c4)nc3n2)CCN1	> 6.00
O=C(c1cnc2ccc(-c3cnc(Cl)c(NS(=O)(=O)c4ccc(F)cc4F)c3)cn12)N1CCOCC1	> 7.00

System PI3K α (Homo sapiens (Human)). Read-out pIC50. Item `C[C@H]1CN(c2cnc3ccc(-c4cccc5c(N)nsc45)cc3n2)CCN1` . Report value.
< 5.00

System PI3K α (Homo sapiens (Human)). Read-out pIC50. Item `Nc1nc2cc(-c3ccc4ncc(C(=O)NCCO)n4c3)ccc2o1` . Report value.
> 7.00

System PI3K α (Homo sapiens (Human)). Read-out pIC50. Item `CC1(C)CN(C2CN(c3cnc4ccc(-c5ccc6oc(N)nc6c5)nc4n3)C2)CCN1` . Report value.
> 7.00

System PI3K α (Homo sapiens (Human)). Read-out pIC50. Item `Nc1nc2cc(-c3ccc4ncc(N5CC(N6CCNCC6)C5)nc4c3)ccc2o1` . Report value.
> 7.00

System PI3K α (Homo sapiens (Human)). Read-out pIC50. Item `Nc1nc2cc(-c3cc(F)c4oc(N)nc4c3)ccc2o1` . Report value.
> 5.00

System PI3K α (Homo sapiens (Human)). Read-out pIC50. Item `C[C@H]1CN(C2CN(c3cnc4ccc(-c5ccc6oc(N)nc6c5)nc4n3)C2)CCN1` . Report value.
> 7.00

System PI3K α (Homo sapiens (Human)). Read-out pIC50. Item `CC(=O)N1CCC(N(C)c2ncnc3ccc(-c4ccc5oc(N)nc5c4)cc23)CC1` . Report value.
> 7.00

System PI3K α (Homo sapiens (Human)). Read-out pIC50. Item `Nc1nc2cc(-c3nc(N4CCOCC4)c4cnn(C5CCNCC5)c4n3)ccc2o1` . Report value.
> 6.00

System PI3K α (Homo sapiens (Human)). Read-out pIC50. Item `CNS(=O)(=O)c1cc(-c2ccc3ncc(C(=O)N4CCOCC4)n3c2)ccc1OC` . Report value.
< 5.00

System PI3K α (Homo sapiens (Human)). Read-out pIC50. Item `Nc1nc2cc(-c3ccc4ncc(C(=O)NCCCN5CCOCC5)n4c3)ccc2o1` . Report value.
> 6.00

System PI3K α (Homo sapiens (Human)). Read-out pIC50. Item `Nc1nc2cc(-c3ccc4ncc(N5CC(N6CCOCC6)C5)nc4n3)ccc2o1` . Report value.
> 7.00

System PI3K α (Homo sapiens (Human)). Read-out pIC50. Item `Nc1nc2cc(-c3ccc4ncc(C(=O)N5CC[C@H](N6CCOCC6)C5)n4c3)ccc2o1` . Report value.
> 7.00

System PI3K α (Homo sapiens (Human)). Read-out pIC50. Item `N#Cc1cnc2ccc(-c3ccc4oc(N)nc4c3)cc2c1` . Report value.
> 6.00

System PI3K α (Homo sapiens (Human)). Read-out pIC50. Item `Nc1nc2cc(-c3ccc4ncc(N5CCOCC5)n4n3)ccc2o1` . Report value.
> 6.00

System PI3K α (Homo sapiens (Human)). Read-out pIC50. Item `CCOC(=O)N1CCN(c2cnc3ccc(-c4ccc5oc(N)nc5c4)cc3n2)CC1` . Report value.
> 7.00

System PI3K α (Homo sapiens (Human)). Read-out pIC50. Item `Nc1nc2cc(-c3c[nH]c4nccc(-c5ccncc5)c34)ccc2o1` . Report value.
> 5.00

----------
target: PI3K β (Homo sapiens (Human), UniProt P42338)
Sequence (P42338 whole entry): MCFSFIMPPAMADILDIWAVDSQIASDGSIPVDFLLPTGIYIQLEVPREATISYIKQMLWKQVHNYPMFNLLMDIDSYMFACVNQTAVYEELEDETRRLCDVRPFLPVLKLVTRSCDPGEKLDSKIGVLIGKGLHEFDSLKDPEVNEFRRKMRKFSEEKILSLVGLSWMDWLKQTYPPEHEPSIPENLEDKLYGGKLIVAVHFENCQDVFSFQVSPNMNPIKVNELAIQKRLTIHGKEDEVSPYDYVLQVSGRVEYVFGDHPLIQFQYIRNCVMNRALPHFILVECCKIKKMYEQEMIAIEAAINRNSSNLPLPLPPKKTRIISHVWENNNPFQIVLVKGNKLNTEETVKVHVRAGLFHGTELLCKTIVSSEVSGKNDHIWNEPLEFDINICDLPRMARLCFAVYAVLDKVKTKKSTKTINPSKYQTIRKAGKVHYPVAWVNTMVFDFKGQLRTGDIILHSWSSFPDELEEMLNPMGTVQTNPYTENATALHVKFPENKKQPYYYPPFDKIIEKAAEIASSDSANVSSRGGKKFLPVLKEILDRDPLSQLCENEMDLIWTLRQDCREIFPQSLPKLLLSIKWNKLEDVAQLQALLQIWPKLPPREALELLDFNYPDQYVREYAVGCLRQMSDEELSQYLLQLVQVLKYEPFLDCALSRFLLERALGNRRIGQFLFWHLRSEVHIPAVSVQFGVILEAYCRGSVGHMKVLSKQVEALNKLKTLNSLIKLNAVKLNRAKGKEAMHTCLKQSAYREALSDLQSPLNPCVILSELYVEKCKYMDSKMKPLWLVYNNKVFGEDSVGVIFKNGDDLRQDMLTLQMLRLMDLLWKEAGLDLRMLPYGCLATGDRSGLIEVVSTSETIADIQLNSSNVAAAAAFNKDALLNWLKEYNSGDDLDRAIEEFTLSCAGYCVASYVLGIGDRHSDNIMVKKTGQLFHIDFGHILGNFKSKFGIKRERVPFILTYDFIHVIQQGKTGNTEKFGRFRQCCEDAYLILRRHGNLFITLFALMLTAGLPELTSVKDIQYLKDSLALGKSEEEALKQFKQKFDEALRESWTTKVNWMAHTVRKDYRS
Sequence (P27986 whole entry partner): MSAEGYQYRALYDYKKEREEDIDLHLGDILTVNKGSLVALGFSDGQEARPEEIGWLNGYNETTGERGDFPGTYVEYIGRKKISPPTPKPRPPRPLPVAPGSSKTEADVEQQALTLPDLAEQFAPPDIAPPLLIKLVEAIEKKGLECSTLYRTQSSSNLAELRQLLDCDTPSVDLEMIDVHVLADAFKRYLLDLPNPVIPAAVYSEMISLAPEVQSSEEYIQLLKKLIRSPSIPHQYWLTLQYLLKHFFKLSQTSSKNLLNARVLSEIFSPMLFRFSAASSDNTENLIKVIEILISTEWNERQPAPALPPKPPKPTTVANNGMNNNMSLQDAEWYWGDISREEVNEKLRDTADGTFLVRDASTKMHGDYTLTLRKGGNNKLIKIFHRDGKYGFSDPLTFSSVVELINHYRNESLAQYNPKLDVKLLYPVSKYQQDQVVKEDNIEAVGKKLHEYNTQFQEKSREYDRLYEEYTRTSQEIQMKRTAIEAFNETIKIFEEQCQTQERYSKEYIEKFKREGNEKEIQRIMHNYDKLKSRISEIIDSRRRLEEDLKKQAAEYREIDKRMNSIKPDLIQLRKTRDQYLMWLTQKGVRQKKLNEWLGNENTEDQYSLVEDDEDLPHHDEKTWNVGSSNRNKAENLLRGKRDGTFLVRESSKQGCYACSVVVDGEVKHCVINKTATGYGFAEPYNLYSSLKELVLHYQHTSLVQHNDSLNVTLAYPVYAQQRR
reported metric: IC50

# annotated cases, reported IC50 shown
Nc1nc2cc(-c3ccc4ncc(N5CC(N6CCOCC6)C5)nc4c3)cc(Cl)c2o1	< 1 µM
C[C@@H]1COCCN1c1cnc2ccc(-c3ccc4oc(N)nc4c3)nc2n1	< 10 µM
Nc1nc2cc(-c3ccc4ncc(C(=O)N5CCC(N6CCOCC6)CC5)n4c3)ccc2o1	< 10 µM

Report measured IC50; entry is `Nc1nc2cccc(-c3ccc4nccc(-c5ccncc5)c4c3)c2s1`
< 1 µM

Report measured IC50; entry is `Nc1nc2cc(-c3ccc4ncc(C(=O)N5CC(N6CC[C@H](O)C6)C5)n4c3)ccc2o1`
< 10 µM

----------
pIC50: −log10 of the molar value.
As a worked illustration, we turn to pIC50 data collected for PI3K δ (Homo sapiens (Human)).

Nc1nc2cc(-c3ccc4ncc(-c5ccc6nc(N)oc6c5)n4c3)ccc2o1	> 5.00
Nc1nc2cc(-c3ccc4ncc(N5CCN(C(=O)C6(N)CC6)CC5)nc4n3)ccc2o1	> 5.00
CN1CCN(C(=O)c2cnc3cnc(-c4ccc5oc(N)nc5c4)cn23)CC1	< 5.00
CC(C)N1CCC(Nc2ncnc3ccc(-c4ccc5oc(N)nc5c4)cc23)CC1	> 6.00
N#Cc1cnc2ccc(-c3ccc4oc(N)nc4c3)cc2c1-c1ccncc1	> 7.00
Nc1nc2cc(-c3ccc4ncc(C(=O)N5CCOCC5)n4c3)ccc2o1	> 5.00
CN1CCN(c2cc(-c3cnc4ccc(-c5ccc6oc(N)nc6c5)cn34)ccn2)CC1	> 7.00
Nc1nc2cc(-c3ccc4ncc(C(=O)Nc5cccnc5)n4c3)ccc2o1	> 6.00
CN1CCN(c2cnc3ccc(-c4ccc5nc(N)sc5c4)cc3n2)CC1	< 5.00
Nc1nc2cc(-c3ccc4ncc(N5CC(N6CCN(CCO)CC6)C5)cc4n3)ccc2o1	> 6.00

System PI3K δ (Homo sapiens (Human)). Read-out pIC50. Item `CS(=O)(=O)N1CCN(Cc2cc3nc(-c4ccc5oc(N)nc5c4)nc(N4CCOCC4)c3s2)CC1` . Report value.
> 6.00

System PI3K δ (Homo sapiens (Human)). Read-out pIC50. Item `C[C@@H]1CN(C2CN(c3cnc4ccc(-c5ccc6oc(N)nc6c5)nc4c3)C2)CCN1` . Report value.
> 6.00

System PI3K δ (Homo sapiens (Human)). Read-out pIC50. Item `Nc1nc2cc(-c3ccc4ncc(C(=O)N5CCOCC5)n4n3)ccc2o1` . Report value.
< 5.00

System PI3K δ (Homo sapiens (Human)). Read-out pIC50. Item `Nc1nc2cc(-c3ccc4nccc(N5CCOCC5)c4c3)ccc2o1` . Report value.
> 6.00

System PI3K δ (Homo sapiens (Human)). Read-out pIC50. Item `Nc1nc2cc(-c3ccc4ncc(N5CC(N6CCOCC6)C5)nc4n3)ccc2o1` . Report value.
> 5.00
